# Target System: recombinant human IL-1 beta (human, UniProt P01584 117-269)
# Assay Overview: cell-based or functional assay
Property: IC50 of IL-1 beta-induced IL-6 release from human dermal fibroblasts (nM)
Dear colleague, please return just the value in nM, with no unit written.

Field: example entries. Status: answers known.
>  <Binder>
DLX2475 (scFv) scFv: EIVMTQSPSTLSASVGDRVIITCQASQSIDKWLSWYQQKPGKAPKLLIYQASTLASGVPSRFSGSGSGAEFTLTISSLQPDDFATYYCQNTGGGVHIAFGQGTKLTVLGGGGGSGGGGSGGGGSGGGGSEVQLVESGGGLVQPGGSLRLSCTASGFSLSSYAMAWVRQAPGKGLEWVGIIYDSASTYYASWAKGRFTISRDTSKNTVYLQMNSLRAEDTAVYYCARERAIFSGDFKLWGQGTLVTVSS

>  <U>
nM

>  <Endpoint Value>
0.2

$$$$
>  <Binder>
DLX2480 (scFv) scFv: EIVMTQSPSTLSASVGDRVIITCQASQSIDNWLSWYQQKPGKAPKLLIYRASTLASGVPSRFSGSGSGAEFTLTISSLQPDDFATYYCQNTGGGINIAFGQGTKLTVLGGGGGSGGGGSGGGGSGGGGSEVQLVESGGGLVQPGGSLRLSCTASGFSLSDAAMAWVRQAPGKGLEWVGIIYDSASTYYASWAKGRFTISRDTSKNTVYLQMNSLRAEDTAVYYCARERQIFSGDFVLWGQGTLVTVSS

>  <U>
nM

>  <Endpoint Value>
0.005

$$$$

Alright, here's another binder for you.
Req: Please list IC50 of IL-1 beta-induced IL-6 release from human dermal fibroblasts recorded for the binder DLX2468 (scFv) scFv: EIVMTQSPSTLSASVGDRVIITCQASQSIGNYLSWYQQKPGKAPKLLIYRASTLASGVPSRFSGSGSGAEFTLTISSLQPDDFATYYCQNAGGGTSIAFGQGTKLTVLGGGGGSGGGGSGGGGSGGGGSEVQLVESGGGLVQPGGSLRLSCTASGFSLSSSAMAWVRQAPGKGLEWVGIIYDSASTYYASWAKGRFTISRDTSKNTVYLQMNSLRAEDTAVYYCARERNIFSGDMVLWGQGTLVTVSS
Resp: 0.015
